Entries annotated with measured activity at 0.1 µM
test system: iCell endothelial cells (human iPSC-derived ECs); assay: Tube formation (tubulogenesis) assay in iCell endothelial cells, 18 h; assay type: cell-based; details: Homo sapiens, Endothelial cell, iPSC-EC tube formation, 18 hr, 0.10 µM, 0.00 µM control = 100.00, read-out: endo.mtl.18hr
Structures can show the parent of a compound that is named as a salt.

MOLECULE | activity at 0.1 µM
Oc1ccccc1-c1ccc(Cl)cc1 | 106%
Oc1ccc(O)c(-c2ccc(Cl)cc2)c1 | 104%
Oc1cccc(-c2ccc(Cl)cc2)c1 | 85.4%
Clc1cccc(-c2cccc(Cl)c2)c1 | 102%
Oc1cc(Cl)c(-c2cc(Cl)ccc2Cl)cc1Cl | 119%
O=S(=O)(O)Oc1cccc(-c2ccc(Cl)cc2)c1 [3'-yl PCB 3 sulfate] | 87.9%
O=C1C=CC(=O)C(c2ccc(Cl)cc2)=C1 | 96.3%

###

System: iCell endothelial cells (human iPSC-derived ECs)
Test: Tube formation (tubulogenesis) assay in iCell endothelial cells, 18 h
Assay type: cell-based
Conditions: Homo sapiens, Endothelial cell, iPSC-EC tube formation, 18 hr, 10.00 µM, 0.00 µM control = 100.00, read-out: endo.mtl.18hr
Protocol: The culture conditions of iCell®-endothelial cells were as reported elsewhere ([Iwata et al. 2017]). Briefly, T75 flasks were coated with a fibronectin solution ( 3 μg/cm^2 ) followed by incubation for 1–2 h. […] Phenotypic responses were quantitatively assessed using concentration–response modeling as detailed elsewhere ([Sirenko et al. 2017]). […] The ability of physicochemical properties to predict differences in PODs were evaluated by multiregression and mixed-effects modeling using R.
Where a name gives a salt, the structure may show the parent alone.
Parameter: activity at 10 µM. Scope: all listed entries.
QUANTITY NAME: activity at 10 µM (%)

COMPOUND | QUANTITY NAME | REPORTED VALUE
Clc1ccc(-c2ccccc2)cc1 | activity at 10 µM | 118
COc1ccc(-c2ccc(Cl)cc2)cc1 | activity at 10 µM | 76
Oc1ccc(-c2cccc(Cl)c2)cc1Cl | activity at 10 µM | 95.5
O=S(=O)(O)Oc1ccc(-c2ccc(Cl)cc2)cc1 [4'-yl PCB 3 sulfate] | activity at 10 µM | 74.7

###

# reported huvec.tta.18hr; entries follow
test system: iPSC-CMs, iPSC-ECs and HUVECs phenotypes; assay: ToxPi 2.0 integration of POD values and physicochemical descriptors; set-up: species or system human; details: ToxPi-scaled (0-1) score; HUVECs, tube formation, 18 h
Counter-ions that a name gives are not always drawn.
QUANTITY NAME: huvec.tta.18hr

MOLECULE | QUANTITY NAME | REPORTED VALUE
O=S(=O)(O)Oc1cc(-c2ccccc2)ccc1Cl [3-PCB 3 sulfate] | huvec.tta.18hr | 0
Clc1ccc(Cl)c(-c2cc(Cl)ccc2Cl)c1 | huvec.tta.18hr | 0
Clc1cccc(-c2cccc(Cl)c2)c1 | huvec.tta.18hr | 0
COc1cc(Cl)c(-c2cc(Cl)ccc2Cl)cc1Cl | huvec.tta.18hr | 0
Clc1ccc(Cl)c(-c2c(Cl)ccc(Cl)c2Cl)c1Cl [(+)-PCB 136, 2,2′,3,3′,6,6′-hexachlorobiphenyl] | huvec.tta.18hr | 0
O=C1C=CC(=O)C(c2ccc(Cl)cc2)=C1 | huvec.tta.18hr | 1

###

test system: HUVECs; assay: Tube formation (tubulogenesis) assay in HUVECs, 18 h; format: cell-based, human; conditions: Homo sapiens, HUVEC, 18 h, HUVECs, 10.00 µM, 0.00 µM = 100.00, read-out: huvec.ttl.18hr
Where a name gives a salt, the structure may show the parent alone.
Define the label as Met when activity at 10 µM is strictly less than 80% and as Not met in all remaining cases.

COMPOUND | ASSIGNED CATEGORY
O=S(=O)(O)Oc1cc(Cl)ccc1-c1ccccc1 [2-yl PCB 3 sulfate] | Not met
COc1ccc(-c2ccc(Cl)cc2)cc1 | Met
O=S(=O)(O)Oc1cc(-c2ccccc2)ccc1Cl [3-yl PCB 3 sulfate] | Not met
Clc1cccc(-c2cccc(Cl)c2)c1 | Not met
Oc1ccc(-c2ccc(Cl)cc2)cc1 | Met
Clc1ccc(-c2ccccc2)cc1 | Met
Oc1cc(Cl)c(-c2cc(Cl)ccc2Cl)cc1Cl | Not met

###

test system: iCell endothelial cells (human iPSC-derived ECs); assay: High-content imaging cytotoxicity in iCell endothelial cells, 24 h; format: cell-based; conditions: Homo sapiens, Endothelial cell, iPSC-EC, 24 hr, 0.10 µM, 0.00 µM control = 100.00, read-out: endo.tc.24hrs
Structures can show the parent of a compound that is named as a salt.
QUANTITY NAME: viability at 0.1 µM

COMPOUND | QUANTITY NAME | REPORTED VALUE
O=C1C=CC(=O)C(c2ccc(Cl)cc2)=C1 [4-Cl-BQ, 2-(4-Chlorophenyl)benzo-2,5-quinone] | viability at 0.1 µM | 89.7%
COc1ccc(-c2cccc(Cl)c2)cc1Cl [4-OMe PCB11] | viability at 0.1 µM | 101%
Oc1cccc(-c2ccc(Cl)cc2)c1 [3'-OH PCB3] | viability at 0.1 µM | 99.8%
O=S(=O)(O)Oc1cc(Cl)ccc1-c1ccccc1 [2-yl PCB 3 sulfate] | viability at 0.1 µM | 97.1%

###

Attribute: cm.amp.avg.90min
test system: iPSC-CMs, iPSC-ECs and HUVECs phenotypes; test: ToxPi 2.0 integration of POD values and physicochemical descriptors; design: species or system human; settings: ToxPi-scaled (0-1) score; iPSC cardiomyocytes, 90 min

SMILES REPR | cm.amp.avg.90min
Oc1ccc(-c2ccc(Cl)cc2)cc1 | 0.5917
Oc1cc(Cl)c(-c2cc(Cl)ccc2Cl)cc1Cl | 0.2901
Clc1ccc(Cl)c(-c2cc(Cl)ccc2Cl)c1 | 0.5597
Oc1ccccc1-c1ccc(Cl)cc1 | 1
O=C1C=CC(=O)C(c2ccc(Cl)cc2)=C1 | 0.3159
Clc1ccc(-c2ccccc2)cc1 | 0.3083
Oc1cc(Cl)cc(-c2cccc(Cl)c2)c1 | 0.6478
COc1ccc(-c2cccc(Cl)c2)cc1Cl | 0.6528
Clc1ccc(Cl)c(-c2c(Cl)ccc(Cl)c2Cl)c1 | 0.3275

###

We begin with a simple list: items and their reported huvec.tc.24hr.
tested on: iPSC-CMs, iPSC-ECs and HUVECs phenotypes; experiment: ToxPi 2.0 integration of POD values and physicochemical descriptors; parameters: species or system human; settings: ToxPi-scaled (0-1) score; HUVECs, 24 h
Counter-ions that a name gives are not always drawn.

COMPOUND | huvec.tc.24hr
O=S(=O)(O)Oc1cccc(-c2ccc(Cl)cc2)c1 [3'-PCB 3 sulfate] | 0
Oc1ccc(O)c(-c2ccc(Cl)cc2)c1 [2',5'-diOH-PCB 3, 4-Chloro-2′,5′-dihydroxybiphenyl] | 0.7001
COc1ccc(-c2cccc(Cl)c2)cc1Cl | 0.2668
COc1ccc(-c2ccc(Cl)cc2)cc1 | 0.2539

###

test system: HUVECs; assay: High-content imaging cytotoxicity in HUVECs, 24 h; assay type: cell-based, human; conditions: Homo sapiens, HUVEC, 24 h, HUVECs, 24 hr, 0.10 µM; 0.00 µM = 100.00; read-out: huvec.mitoint.24hr
Counter-ions that a name gives are not always drawn.

MOLECULE | MEASURED ON | activity at 0.1 µM / %
O=C1C=CC(=O)C(c2ccc(Cl)cc2)=C1 | HUVECs | 105
Clc1ccc(-c2ccccc2)cc1 | HUVECs | 118
O=S(=O)(O)Oc1ccc(-c2ccc(Cl)cc2)cc1 [4'-yl PCB 3 sulfate] | HUVECs | 109
O=S(=O)(O)Oc1cc(Cl)c(-c2cc(Cl)ccc2Cl)cc1Cl [4-yl PCB 52 sulfate] | HUVECs | 113
Oc1cc(Cl)cc(-c2cccc(Cl)c2)c1 | HUVECs | 107
O=S(=O)(O)Oc1cc(-c2ccccc2)ccc1Cl [3-yl PCB 3 sulfate] | HUVECs | 110
Oc1ccc(O)c(-c2ccc(Cl)cc2)c1 | HUVECs | 112

###

system: iCell endothelial cells (human iPSC-derived ECs); assay: Tube formation (tubulogenesis) assay in iCell endothelial cells, 18 h; assay type: cell-based; details: Homo sapiens, Endothelial cell, iPSC-EC tube formation, 18 hr, 100.00 µM, 0.00 µM control = 100.00, read-out: endo.tlps.18hr
Where a name gives a salt, the structure may show the parent alone.
molecules and their reported activity at 100 µM

MOLECULE | activity at 100 µM, %
O=S(=O)(O)Oc1cc(Cl)c(-c2cc(Cl)ccc2Cl)cc1Cl [4-yl PCB 52 sulfate] | 10.1
Oc1ccc(-c2cccc(Cl)c2)cc1Cl | 14.8
Oc1ccc(O)c(-c2ccc(Cl)cc2)c1 | 7.76
Oc1ccc(-c2ccc(Cl)cc2)cc1 | 11.3
Clc1ccc(-c2ccccc2)cc1 | 113
O=C1C=CC(=O)C(c2ccc(Cl)cc2)=C1 | 9.31
Oc1cc(Cl)c(-c2cc(Cl)ccc2Cl)cc1Cl | 0

Value source: paper PMC7377239
